Source: BindingDB's records for doi:10.7270/Q29K48M5

molecular target: M-phase inducer phosphatase 2 (Homo sapiens, UniProt P30305); assay: inhibition of Cdc25B phosphatase activity – biochemical, 25 mM DTT, probe assessment, dose response (AID 649)
Sequence (P30305 whole entry): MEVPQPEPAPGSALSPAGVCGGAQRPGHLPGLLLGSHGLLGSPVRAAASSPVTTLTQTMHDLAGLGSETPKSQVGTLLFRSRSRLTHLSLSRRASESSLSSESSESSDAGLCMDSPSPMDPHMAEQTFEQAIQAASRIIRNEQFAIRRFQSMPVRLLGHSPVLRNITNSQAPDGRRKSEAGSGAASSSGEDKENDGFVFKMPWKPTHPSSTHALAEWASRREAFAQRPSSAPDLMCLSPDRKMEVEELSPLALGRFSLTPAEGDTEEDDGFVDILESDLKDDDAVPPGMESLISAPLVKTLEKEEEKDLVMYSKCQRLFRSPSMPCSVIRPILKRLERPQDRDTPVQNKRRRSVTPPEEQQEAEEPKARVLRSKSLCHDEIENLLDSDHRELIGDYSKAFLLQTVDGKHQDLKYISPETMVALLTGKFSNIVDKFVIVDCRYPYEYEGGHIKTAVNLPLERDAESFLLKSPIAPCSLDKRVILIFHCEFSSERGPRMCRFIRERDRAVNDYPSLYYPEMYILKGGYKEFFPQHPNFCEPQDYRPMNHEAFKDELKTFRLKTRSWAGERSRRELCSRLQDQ
pIC50: −log10 of the molar value.
Metric name: pIC50

(1) N#Cc1c(N)sc(=S)c2c1CCN(Cc1ccccc1)C2
(2) Cc1ccc2c(c1C)NC(C(=O)O)C1CC=CC21 (configuration not stated)
Looking at 1 and 2 , which one comes out lower in pIC50 terms? Reply briefly: the label of your chosen item. 1
(1: 4.31, 2: 4.75)

(P) O=C(OC1CCCCC1)c1ccc2c(c1)C1C=CCC1C(C(=O)O)N2 (configuration not stated)
(Q) O=C(O)C1Nc2c(O)cccc2C2C=CCC12 (configuration not stated)
Thinking about recorded pIC50 values, which is higher, P or Q ? Reply briefly: the label of your chosen item. P
(P: 5.13, Q: 4.89)

* * *

molecular target: M-phase inducer phosphatase 2 (Homo sapiens, UniProt P30305); test: inhibition of Cdc25B phosphatase activity – biochemical, 25 mM DTT, probe assessment, dose response (AID 649)
Metric name: IC50 (µM)

Record excerpt, results attached:
| Chemical smiles | IC50 (µM) |
| --- | --- |
| Cn1ncnc2c(=O)n(C)c(=O)nc1-2 | 34.5 |
| Cc1ccccc1Nc1cc2ccccc2c(O)n1 | 42.3 |
| Oc1nc(Nc2ccccc2)cc2ccccc12 | 48 |

(A) COc1cccc2c(C)c(C(=O)O)[nH]c12
(B) O=C(Nc1ccc2nc(-c3ccco3)c(-c3ccco3)nc2c1)N1CCCCCC1
Thinking about recorded IC50 values, which is higher, A or B ? Reply briefly: the label of your chosen item. B
(B: 39.8 µM, A: 10.9 µM)

* * *

Each entry below carries its recorded IC50.
target: M-phase inducer phosphatase 2 (Homo sapiens, UniProt P30305); assay: inhibition of Cdc25B phosphatase activity – biochemical, 25 mM DTT, probe assessment, dose response (AID 649)

Record excerpt, results attached:
| Compound | IC50 |
| --- | --- |
| COc1cccc2c1NC(C(=O)O)C1CC=CC21 (stereo not drawn) | 11.7 µM |
| Cc1ccc2c(c1)C1C=CCC1C(C(=O)O)N2 (stereo not drawn) | 11.4 µM |

For COc1ccc(Br)cc1C=c1sc2nc(-c3ccco3)nn2c1=O , write its IC50. 14.7 µM

For CCOc1ccc2noc3c2c1C(=O)c1ccccc1-3 , write its IC50. > 50 µM

For N#Cc1c(N2CCCC2)nc(N)c2c(N)nc(N3CCCC3)cc12 , write its IC50. > 50 µM

* * *

molecular target: M-phase inducer phosphatase 2 (Homo sapiens, UniProt P30305); assay: inhibition of Cdc25B phosphatase activity – biochemical, 25 mM DTT, probe assessment, dose response (AID 649)
Each entry below carries its recorded IC50.

Record excerpt, results attached:
| Compound | Assay system | IC50 |
| --- | --- | --- |
| Cc1c(N=c2c(=O)c3ccccc3c2=O)c(=O)n(-c2ccccc2)n1C [MLS000105950] | M-phase inducer phosphatase 2 (Homo sapiens, UniProt P30305) | > 50 µM |
| c1ccc(CSc2nnc(-c3ccco3)c(-c3ccco3)n2)cc1 [MLS-0029114.0001] | M-phase inducer phosphatase 2 (Homo sapiens, UniProt P30305) | > 50 µM |
| COc1ccc2noc3c2c1C(=O)c1ccccc1-3 [MLS000106874] | M-phase inducer phosphatase 2 (Homo sapiens, UniProt P30305) | > 50 µM |
| O=C1C=Cc2ccccc2/C1=C/NC12CN3CCN(CN(C3)C1)C2 [MLS000071484] | M-phase inducer phosphatase 2 (Homo sapiens, UniProt P30305) | > 50 µM |

For O=C(NC1(O)C(=O)c2ccccc2C1=O)c1ccccc1 , write its IC50. > 50 µM

For Nc1cccc2cnccc12 [isoquinolin-5-amine] , write its IC50. > 50 µM

For CCOC(=O)C(C(=O)OCC)c1cc(Br)c2noc3c2c1C(=O)c1ccccc1-3 [MLS000038842] , write its IC50. > 50 µM

For [O-]/[N+](=C\c1ccncc1)c1ccccc1 , write its IC50. > 50 µM

For O=C1Cc2ccccc2C(=O)N1CCc1ccccc1 , write its IC50. > 50 µM
